pIC50: −log10 of the molar value.
// each record: one item and its pIC50 for PHF8 (KDM7) (Homo sapiens)

Below, 5 compounds whose answers are already recorded.
C=CCN(CC=C)C(=O)[C@@H](CCS(C)(=O)=O)NCc1cc(C(=O)O)ccn1 [Compound 37] : > 6.60
O=C(O)c1ccnc(CN2CCCCC2CO)c1 (stereo not shown) [Compound 66] : < 5.60
CCNC(=O)C[C@@H]1CCN(Cc2cc(C(=O)O)ccn2)C1 [Compound 77] : 5.60 to 6.60
CCN(CC)C(=O)CC(C)NCc1cc(C(=O)O)ccn1 (stereo not shown) [Compound 43] : 5.60 to 6.60
O=C(O)c1ccnc(CN2CCC[C@@H]2C(=O)N2CCCCC2)c1 [Compound 56] : 5.60 to 6.60

Would you be so kind as to report pIC50 for each listed record?
1. O=C(O)c1ccnc(CNC2CCc3cc(Br)cnc32)c1 (stereo not shown) [Compound 103]
2. CCN(CC)C(=O)CCN(CCNC(C)=O)Cc1cc(C(=O)O)ccn1 [Compound 27]
3. O=C(O)c1ccnc(CNC2CCc3c(Cc4ccccc4)ccnc32)c1 (stereo not shown) [Compound 92]
4. C=CCN(CC=C)C(=O)[C@@H](CCC(N)=O)NCc1cc(C(=O)O)ccn1 [Compound 25]
5. C=Cc1ccnc2c1CCC2NCc1cc(C(=O)O)ccn1 (stereo not shown) [Compound 100]

Response:
1: > 6.60; 2: 5.60 to 6.60; 3: 5.60 to 6.60; 4: 5.60 to 6.60; 5: > 6.60

----------
Here's what we have: IC50 numbers for KDM6A (UTX) (Homo sapiens).

Cc1cn2c(n1)CCN(Cc1cc(C(=O)O)ccn1)CC2 : > 2.5 µM
CCN1CCC[C@H](CNCc2cc(C(=O)O)ccn2)C1=O : > 2.5 µM
CC(N[C@@H](C)C(=O)NCc1ccccc1O)c1cc(C(=O)O)ccn1 (stereo partly drawn) : > 2.5 µM
Cc1cn2c(n1)CCN(Cc1cc(C(=O)O)ccn1)CCC2 : > 2.5 µM
CCN1CCC[C@@H](CNCc2cc(C(=O)O)ccn2)C1=O : > 2.5 µM

Provide the reported IC50 of each entry below, same order.
1. C[C@H](c1ccccc1)N1CC[C@H](CNCc2cc(C(=O)O)ccn2)C1=O
2. CCNC(=O)C1CCN(Cc2cc(C(=O)O)ccn2)C1 (stereo not drawn)
3. CCNC(=O)C1CCN(Cc2cc(C(=O)O)ccn2)CC1
4. CC(C)(C)c1nc2ccccn2c1CNCc1cc(C(=O)O)ccn1
5. O=C(O)c1ccnc(CN2CC[C@H]2CO)c1
6. CCNC(=O)C[C@@H]1CCCCN1Cc1cc(C(=O)O)ccn1

Response:
["0.25 to 2.5 µM", "> 2.5 µM", "> 2.5 µM", "> 2.5 µM", "> 2.5 µM", "> 2.5 µM"]

# IC50 of CC(N[C@@H](C)C(=O)NCc1ccccc1CO)c1cc(C(=O)O)ccn1 (stereo partly drawn) = > 2.5 µM

----------
Reported pIC50, KDM5B (PLU-1) (Homo sapiens).
pIC50: −log10 of the molar value.

List reported pIC50 for each of these molecules:
1. O=C(O)c1ccnc(CN2CCCC(C3CCCCC3)C2CO)c1 (stereo not shown)
2. C=CCN(CC=C)C(=O)[C@H](CCCCN(C)C(=O)NC)NCc1cc(C(=O)O)ccn1
3. CC1(C)Cc2cccnc2C1NCc1cc(C(=O)O)ccn1 (stereo not shown)
4. O=C(O)c1ccnc(CNC2CCc3cccnc32)c1 (stereo not shown)

Response:
["5.60 to 6.60", "5.60 to 6.60", "5.60 to 6.60", "> 6.60"]

Go through the list and state pIC50 for each entry.
1. C=CCN(CC=C)C(=O)[C@@H](CCC(N)=O)NCc1cc(C(=O)O)ccn1
2. CC(C)(C)c1nc2ccccn2c1CNCc1cc(C(=O)O)ccn1
3. CCNC(=O)C1CCN(Cc2cc(C(=O)O)ccn2)C1 (stereo not shown)
4. COc1ccc([C@@H](C)N2CC[C@H](CNCc3cc(C(=O)O)ccn3)C2=O)cc1
5. C=CCN(CC=C)C(=O)[C@H](CC(=O)NCC1(CO)CC1)NCc1cc(C(=O)O)ccn1
6. O=C(O)c1ccnc(CN2CCC[C@@H]2C(=O)N2CCCCC2)c1

Response:
1: 5.60 to 6.60; 2: > 6.60; 3: 5.60 to 6.60; 4: > 6.60; 5: 5.60 to 6.60; 6: < 5.60

List the reported pIC50 of each molecule below.
1. O=C(O)c1ccnc(CNCc2ccc3ncccc3c2)c1
2. CSCC(NCC(=O)N1CCCCC1)c1cc(C(=O)O)ccn1 (stereo not shown)
3. Cc1cn2c(n1)CCN(Cc1cc(C(=O)O)ccn1)CCC2
4. O=C(O)c1ccnc(CN2CCC[C@H]2C(=O)N2CCCCC2)c1
5. CC(N[C@H](C)c1nccs1)c1cc(C(=O)O)ccn1 (stereo partly shown)
6. CC(N[C@@H](C)C(=O)NCc1ccccc1[N+](=O)[O-])c1cc(C(=O)O)ccn1 (stereo partly shown)
7. CC(NCc1nccs1)c1cc(C(=O)O)ccn1 (stereo not shown)
8. CC(C)C[C@H](CO)NC(C)c1cc(C(=O)O)ccn1 (stereo partly shown)

Response:
["> 6.60", "< 5.60", "< 5.60", "< 5.60", "< 5.60", "< 5.60", "5.60 to 6.60", "5.60 to 6.60"]
